Listing: IC50 of selected compounds
biological target: UniProt:P28336; assay: Displacement of [125I]-(D-Tyr0)NMB from human neuromedin B receptor transfected in HEK293 cells; format: cell-based
Sequence (P28336 whole entry): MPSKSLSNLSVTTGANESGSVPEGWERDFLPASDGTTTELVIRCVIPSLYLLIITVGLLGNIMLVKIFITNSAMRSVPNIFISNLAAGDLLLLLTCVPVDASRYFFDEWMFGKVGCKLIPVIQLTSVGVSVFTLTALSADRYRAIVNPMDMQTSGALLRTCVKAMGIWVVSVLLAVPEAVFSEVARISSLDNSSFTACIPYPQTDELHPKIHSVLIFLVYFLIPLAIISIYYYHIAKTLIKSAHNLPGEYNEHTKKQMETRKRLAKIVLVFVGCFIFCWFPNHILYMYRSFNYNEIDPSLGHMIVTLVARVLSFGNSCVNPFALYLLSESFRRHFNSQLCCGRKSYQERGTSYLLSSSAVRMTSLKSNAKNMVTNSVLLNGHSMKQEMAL
State just the number; it will be interpreted in nM.

// below: answered compounds
| COMPOUND | PROPERTY | DATA_VALUE |
| --- | --- | --- |
| Cc1ccc2c(c1)NC(c1c(F)cccc1Cl)C1=C(CC(C)(C)CC1=O)N2C (stereo not given) | IC50 | 10000 |
| Cc1ccc2c(c1)NC(c1c(F)cccc1Cl)C1=C(CC(c3ccco3)CC1=O)N2 (stereo not given) | IC50 | 3000 |
| Cc1ccc2c(c1)NC(c1c(F)cccc1C(F)(F)F)C1=C(CC3(CCCC3)CC1=O)N2 (stereo not given) | IC50 | 540 |
| COc1ccc(C2CC(=O)C3=C(C2)Nc2ccc(C)cc2NC3c2c(F)cccc2Cl)cc1 (stereo not given) | IC50 | 2000 |
| CCN1c2cc(C)ccc2NC2=C(C(=O)CC(C)(C)C2)C1c1c(F)cccc1Cl (stereo not given) | IC50 | 180 |

The record that follows has no IC50 shown yet.
Reading of IC50 for CC1(C)CC(=O)C2=C(C1)Nc1ccc(Cl)cc1NC2c1c(F)cccc1Cl (stereo not given) with UniProt:P28336: 860
